# TARGET UNDER TEST: T1, human TNC rCd4-His-FBG (rat; human, UniProt P05540 209-391; P24821 1974-2201, limits assumed)
# T1 construct: domain: domains 3 and 4;domain: FBG; C-terminal FBG fusion made in HEK293F cells; biotinylated in the ELISA and HTRF assays; also called Hu TNC; hTNC; not shown: 6His tag
# T1 sequence (chain (part 1 of 2), looked up): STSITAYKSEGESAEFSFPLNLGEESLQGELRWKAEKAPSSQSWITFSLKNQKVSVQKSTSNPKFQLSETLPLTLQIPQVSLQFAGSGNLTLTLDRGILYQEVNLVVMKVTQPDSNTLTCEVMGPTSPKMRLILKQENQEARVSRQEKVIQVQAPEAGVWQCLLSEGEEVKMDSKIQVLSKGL
# T1 sequence (chain (part 2 of 2), looked up): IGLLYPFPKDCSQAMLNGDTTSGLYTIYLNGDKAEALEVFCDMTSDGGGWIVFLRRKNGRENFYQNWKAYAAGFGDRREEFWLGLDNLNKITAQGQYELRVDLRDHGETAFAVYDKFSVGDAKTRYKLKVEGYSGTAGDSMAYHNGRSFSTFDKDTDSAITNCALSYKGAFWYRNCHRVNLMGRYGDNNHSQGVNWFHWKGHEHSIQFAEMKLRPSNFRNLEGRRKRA
# MEASUREMENT PROTOCOL: HTRF competition, scFv supernatant; competitor d2-labelled B12 IgG
MEASURED QUANTITY: % inhibition of HTRF signal

Q) Suppose we examine the binder 180_11_F5 scFv (scFv, V domains shown, scFv in E. coli supernatant) VH: QVQLVESGGGLVQPGRSLRLSCAASGFTFDDYAMHWVRQAPGKGLEWVSGISGSGGSTYYADSVKGRFTISRDNAKNSLYLQMNSLRAEDTALYYCAKVMRTGLDTFDIWGQGTMVTVSS VL: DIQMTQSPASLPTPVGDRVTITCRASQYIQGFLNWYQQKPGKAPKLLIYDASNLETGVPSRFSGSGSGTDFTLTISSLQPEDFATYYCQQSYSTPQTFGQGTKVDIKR ; what % inhibition of HTRF signal value has been reported?
A) ≥ 91%

Origin of measurements: patent US20200223910A1
